assay: Pharmacokinetic evaluation in rats; assay type: in vivo, Sprague-Dawley rats; conditions: male, Sprague-Dawley, plasma; rat, IV, 3 mg/kg single dose
Measured Parameter: AUC(0-t) (ng·h/mL)

>>> print(df.to_string())
                                   compound  experimental_value
0  Cc1nc(C(=O)NCC(=O)O)c(O)c2ccc(Oc3ccccc3)cc12 [FG-4592, reference compound]               63800
1  [2H]C([2H])(NC(=O)c1nc(C)c2cc(Oc3ccccc3)ccc2c1O)C(=O)O [Compound 11]               51600
2  [2H]c1cccc(Oc2ccc3c(O)c(C(=O)NC([2H])([2H])C(=O)O)nc(C)c3c2)c1 [Compound 49]               49400
3  [2H]c1c([2H])c([2H])c(Oc2ccc3c(O)c(C(=O)NCC(=O)O)nc(C)c3c2)c([2H])c1[2H] [Compound 32]               55900
